- systemName: T1, IL-2R on human primary T cells (human, UniProt P01589 22-272; P14784 27-551; P31785 23-369)
- T1 sequence (looked up) 1: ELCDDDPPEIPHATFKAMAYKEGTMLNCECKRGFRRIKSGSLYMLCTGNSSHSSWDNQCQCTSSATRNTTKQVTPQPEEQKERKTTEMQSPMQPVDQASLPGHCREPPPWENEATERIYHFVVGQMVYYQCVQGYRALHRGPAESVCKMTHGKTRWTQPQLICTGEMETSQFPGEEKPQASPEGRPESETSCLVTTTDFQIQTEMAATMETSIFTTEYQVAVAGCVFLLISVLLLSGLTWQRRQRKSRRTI
- T1 sequence (looked up) 2: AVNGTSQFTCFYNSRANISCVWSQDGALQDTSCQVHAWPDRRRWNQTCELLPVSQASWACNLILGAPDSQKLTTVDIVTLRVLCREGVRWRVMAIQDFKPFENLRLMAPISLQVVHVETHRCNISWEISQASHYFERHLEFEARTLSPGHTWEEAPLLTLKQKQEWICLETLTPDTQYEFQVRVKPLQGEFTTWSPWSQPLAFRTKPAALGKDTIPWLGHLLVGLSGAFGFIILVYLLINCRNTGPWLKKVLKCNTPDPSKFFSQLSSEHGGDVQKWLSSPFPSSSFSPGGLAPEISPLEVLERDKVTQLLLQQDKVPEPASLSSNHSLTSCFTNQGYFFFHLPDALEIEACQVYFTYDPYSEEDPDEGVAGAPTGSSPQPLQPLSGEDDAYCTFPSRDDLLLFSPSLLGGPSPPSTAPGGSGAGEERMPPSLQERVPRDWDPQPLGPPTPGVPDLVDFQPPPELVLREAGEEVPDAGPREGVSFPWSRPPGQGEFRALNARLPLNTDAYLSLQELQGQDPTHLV
- T1 sequence (looked up) 3: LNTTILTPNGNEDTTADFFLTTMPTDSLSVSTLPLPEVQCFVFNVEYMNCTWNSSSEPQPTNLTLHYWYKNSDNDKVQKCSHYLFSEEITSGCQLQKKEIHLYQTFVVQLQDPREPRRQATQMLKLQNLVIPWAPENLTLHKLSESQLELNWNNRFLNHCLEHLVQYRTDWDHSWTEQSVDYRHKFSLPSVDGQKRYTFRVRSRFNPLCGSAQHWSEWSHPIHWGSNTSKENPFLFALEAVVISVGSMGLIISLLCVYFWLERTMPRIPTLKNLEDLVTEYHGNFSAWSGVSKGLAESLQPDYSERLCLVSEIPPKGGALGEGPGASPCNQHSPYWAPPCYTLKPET
- experimentNotes: cell-based or functional assay
reportedProperty: CD8 EC50 (nM), STAT5 phosphorylation

binder	reportedProperty	unitAbbreviation	testValue
SEQ ID NO 20 (ligand) APTSSSTKKTQLQLEHLLLDLQMILNGINNHKNPKLTRMLTFKFYMPKKATELKHLQCLEEELKPLEEALRLAPSKNFHLRPRDLISNINVIVLELKGSETTFMCEYADETATIVEFLNRWITFSQSIISTLT	CD8 EC50 (nM), STAT5 phosphorylation	nM	227
SEQ ID NO 16 (ligand) APTSSSTKKTQLQLEHLRLDLEMILNGINNYKNPKLTRMLTFKFYMPKKATELKHLQCLEEELKPLEEVLNLAQSKNFHFDPRDVVSNINVFVLELKGSETTFMCEYADETATIVEFLNRWITFSQSIISTLT	CD8 EC50 (nM), STAT5 phosphorylation	nM	1.68
SEQ ID NO 12 (ligand) APTSSSTKKTQLQLEHLRLDLEMILNGINNYKNPKLTRMLTFKFYMPKKATELKHLQCLEEELKPLEEVLNLAQSKNFHFDPRDVVSDINVFVLELKGSETTFMCEYADETATIVEFLNRWITFSTSIISTLT	CD8 EC50 (nM), STAT5 phosphorylation	nM	650

1: SEQ ID NO 34 (ligand) APTSSSTKKTQLQLEHLLLDLQMILNGINNHKNPKLTRMLTFKFYMPKKATELKHLQCLEEELKPLEEVLNLAQSKNFHLRPRDLISDINVIVLELKGSETTFMCEYADETATIVEFLNRWITFSQSIISTLT
2: SEQ ID NO 9 (ligand) APTSSSTKKTQLQLEHLLLDLQMILNGINNHKNPRLTRMLTFKFYMPKKATELKHLQCLEEELKPLEEALRLAPSKNFHLRPRDLISNINVIVLELKGSETTFMCEYADETATIVEFLNRWITFSQSIISTLT
**Q:** Recorded CD8 EC50 (nM), STAT5 phosphorylation values differ for 1 and 2 ; which one is higher? Answer with the label corresponding to your selection.
**A:** 1

a: SEQ ID NO 30 (ligand) APTSSSTKKTQLQLEHLLLDLQMILNGINNHKNPKLTRMLTFKFYMPKKATELKHLQCLEEELKPLEEALNLAPSKNFHLRPRDLISDINVIVLELKGSETTFMCEYADETATIVEFLNRWITFSQSIISTLT
b: SEQ ID NO 21 (ligand) APTSSSTKKTQLQLEHLLLDLQMILNGINNHKNPKLTRMLTFKFYMPKKATELKHLQCLEEELKPLEEALNLAPSKNFHLRPRDLISNINVIVLELKGSETTFMCEYADETATIVEFLNRWITFSQSIISTLT
**Q:** Please choose the item with the lower CD8 EC50 (nM), STAT5 phosphorylation value from this pair: a and b Kindly state the label of the option you pick.
**A:** b
(b: 151 nM, a: 10000 nM)

1: SEQ ID NO 37 (ligand) APTSSSTKKTQLQLEHLLLDLQMILNGINNHKNPKLTRMLTFKFYMPKKATELKHLQCLEEELKPLEEALRLAPSKNFHLRPRDLISDINVIVLELKGSETTFMCEYADETATIVEFLNRWITFSQSIISTLT
2: SEQ ID NO 23 (ligand) APTSSSTKKTQLQLEHLLLDLQMILNGINNHKNPKLTRMLTFKFYMPKKATELKHLQCLEEELKPLEEVLRLAQSKNFHLRPRDLISDINVIVLELKGSETTFMCEYADETATIVEFLNRWITFSQSIISTLT
**Q:** Field: entry with larger CD8 EC50 (nM), STAT5 phosphorylation (options 1 / 2 ). Identify your selection by its label.
**A:** 1

All values here come from patent US20230303649A1.
